- test.method.notes: self-splicing fitness, log relative to wild type (ln ratio); higher = more splicing; Tetrahymena group I intron in knt gene, E. coli kanamycin selection, DiMSum; sequences stand for … in CUCUCU…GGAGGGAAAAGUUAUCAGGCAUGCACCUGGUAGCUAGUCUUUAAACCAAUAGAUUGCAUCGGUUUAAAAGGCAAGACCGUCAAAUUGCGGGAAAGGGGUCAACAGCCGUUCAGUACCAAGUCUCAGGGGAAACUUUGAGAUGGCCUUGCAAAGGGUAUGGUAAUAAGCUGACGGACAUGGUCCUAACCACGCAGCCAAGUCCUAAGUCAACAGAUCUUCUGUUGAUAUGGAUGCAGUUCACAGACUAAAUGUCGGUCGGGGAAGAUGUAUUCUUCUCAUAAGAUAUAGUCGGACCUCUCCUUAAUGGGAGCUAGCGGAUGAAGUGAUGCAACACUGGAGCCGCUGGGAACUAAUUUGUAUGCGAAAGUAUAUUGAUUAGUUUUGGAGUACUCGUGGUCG;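 note: selection with 25 µg/mL kanamycin versus none on LB agar overnight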
- experimental.context: 30 °C
Categories are assigned from the measured self-splicing fitness (ln) using these intervals: low range: < -3; mid range: ≥ -3 and < -1; high range: ≥ -1

| item.sequence | label.value |
| --- | --- |
| GGAUAGCAAUAUUACGCGUU | mid range |
| CAGGAGCAAUAUUACGGAAC | low range |
| GUGAAGCAAUAUUACGCGAA | mid range |
| CUGCAGCAAUAUUACGAUCG | high range |
| GAUGAGCAAUAUUACGACCU | mid range |
| CAGUAGCAAUAUUACGGCGA | mid range |
| AAAUAGCAAUAUUACGAUAA | mid range |
| UCAGAGCAAUAUUACGUGAA | mid range |
| GUGUAGCAAUAUUACGCUUU | low range |
| AAAAAGCAAUAUUACGCCCA | high range |
| GCCUAGCAAUAUUACGCAAU | high range |
| UUGUAGCAAUAUUACGUCUG | high range |
| UCAGAGCAAUAUUACGGCUU | low range |
| CAGCAGCAAUAUUACGGCCA | high range |
| UAAAAGCAAUAUUACGACAC | mid range |
| AAUUAGCAAUAUUACGACAC | high range |
| GCAGAGCAAUAUUACGGGAA | mid range |
| GCUCAGCAAUAUUACGUCUC | high range |
| AUUGAGCAAUAUUACGACGA | low range |
| ACCCAGCAAUAUUACGGAUC | mid range |
| AAUAAGCAAUAUUACGAAAC | low range |
| AACCAGCAAUAUUACGGACU | high range |
| AUCCAGCAAUAUUACGGGUG | mid range |
| GGAUAGCAAUAUUACGUCAU | mid range |
| GUUUAGCAAUAUUACGAAAG | mid range |
| UGAGAGCAAUAUUACGAGGG | low range |
| CGUAAGCAAUAUUACGCUCA | mid range |
| UGUCAGCAAUAUUACGAAGC | low range |
| AGGUAGCAAUAUUACGUGCC | mid range |
| AGGCAGCAAUAUUACGCAGU | low range |

* * *

- test.method.notes: self-splicing fitness, log relative to wild type (ln ratio); higher = more splicing; Tetrahymena group I intron in knt gene, E. coli kanamycin selection, DiMSum; sequences stand for … in CUCUCU…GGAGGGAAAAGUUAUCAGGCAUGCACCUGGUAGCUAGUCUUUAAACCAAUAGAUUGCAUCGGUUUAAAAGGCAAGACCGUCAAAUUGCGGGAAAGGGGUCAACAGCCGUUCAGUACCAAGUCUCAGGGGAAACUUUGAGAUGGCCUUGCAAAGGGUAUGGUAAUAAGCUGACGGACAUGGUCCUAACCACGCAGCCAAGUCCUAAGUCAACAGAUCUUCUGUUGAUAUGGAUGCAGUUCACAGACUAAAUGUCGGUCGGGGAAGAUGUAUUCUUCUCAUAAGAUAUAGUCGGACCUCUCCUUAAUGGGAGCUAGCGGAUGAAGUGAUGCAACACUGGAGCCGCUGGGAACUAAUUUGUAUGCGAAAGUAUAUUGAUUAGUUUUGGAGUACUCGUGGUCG
- experimental.context: 30 °C
Categories are assigned from the measured self-splicing fitness (ln) using these intervals: lo: < -3; med: ≥ -3 and < -2; hi: ≥ -2

| item.sequence | label.value |
| --- | --- |
| ACCUAGCAAUAUUACGCAUU | hi |
| ACUAAGCAAUAUUACGAAAG | hi |
| AUCGAGCAAUAUUACGAGCU | med |
| ACUUAGCAAUAUUACGGAAA | med |
| AUAAAGCAAUAUUACGAAUC | lo |
| UCUAAGCAAUAUUACGGGCA | hi |
| CUCAAGCAAUAUUACGGGUU | lo |
| GCAGAGCAAUAUUACGGUAC | med |
| GCUGAGCAAUAUUACGGCAA | hi |
| GCCGAGCAAUAUUACGCUUG | lo |
| GGUCAGCAAUAUUACGGCGA | hi |
| UUCCAGCAAUAUUACGUUCG | med |
| CCCUAGCAAUAUUACGCCAG | lo |
| ACUGAGCAAUAUUACGGUUU | lo |
| AGCGAGCAAUAUUACGUGUC | lo |
| CCUGAGCAAUAUUACGAUCC | lo |
| GACCAGCAAUAUUACGGACU | hi |
| AACUAGCAAUAUUACGAGGG | med |
| ACCUAGCAAUAUUACGCCAU | lo |
| AUGCAGCAAUAUUACGUUAC | lo |
| CGUUAGCAAUAUUACGAUGC | hi |
| UGUAAGCAAUAUUACGGGGU | lo |
| AUGAAGCAAUAUUACGAAUU | hi |
| CCCAAGCAAUAUUACGUGAA | lo |
| CUGGAGCAAUAUUACGGGUG | hi |
| UGCGAGCAAUAUUACGGCCA | hi |
| ACUGAGCAAUAUUACGUGUU | lo |
| AAGGAGCAAUAUUACGGGCG | lo |
| GGUUAGCAAUAUUACGUACU | hi |
| UGGAAGCAAUAUUACGCCUA | hi |
| GGCGAGCAAUAUUACGUCCU | med |
| AAUCAGCAAUAUUACGCAAU | hi |
| ACGUAGCAAUAUUACGUAUU | lo |
| AACAAGCAAUAUUACGUCAU | med |
| UGCAAGCAAUAUUACGAGUA | hi |
| UAUGAGCAAUAUUACGCUCU | lo |
| AAUUAGCAAUAUUACGGACA | hi |
| GCUGAGCAAUAUUACGUGAG | hi |
| CCUGAGCAAUAUUACGUGGC | lo |
| AUCGAGCAAUAUUACGCGAG | med |
| AUGGAGCAAUAUUACGUCCA | hi |
| GACGAGCAAUAUUACGUAGU | med |
| GGAAAGCAAUAUUACGUUCG | hi |
| ACGAAGCAAUAUUACGGAUA | lo |
| GUUCAGCAAUAUUACGCUCA | hi |
| AUCCAGCAAUAUUACGCAGA | hi |
| CUCCAGCAAUAUUACGCAGA | lo |
| UAUGAGCAAUAUUACGAAGU | lo |
| AUAGAGCAAUAUUACGCCGA | hi |
| UACAAGCAAUAUUACGUAAC | lo |
| GGCGAGCAAUAUUACGAGAG | lo |
| GAAUAGCAAUAUUACGCACU | hi |
| CGAAAGCAAUAUUACGCAUU | lo |
| UUACAGCAAUAUUACGGACA | hi |
| GUAGAGCAAUAUUACGGGUG | med |
| GCUUAGCAAUAUUACGGGUC | lo |
| GCUAAGCAAUAUUACGACCA | med |
| GUAUAGCAAUAUUACGGUUC | hi |
| CUACAGCAAUAUUACGUUCG | hi |

Attribution: the supplement of paper PMC7877785
